- protocol: physchem
- conditionNotes: 22 °C, organic solvent or mixture, thermodynamic from solid, Solubility in C6H14
- Experimental: Determination of the small molecule content in a complex plant matrix depends on the understanding of minimum solubility in the chosen extraction solvent. […] For each of the 29 reference compounds, 2 mg was weighed into a 15 mL glass tube and dissolved in the minimum amount of the test solvent by gradually adding the solvent with a micropipette until complete dissolution or to a final volume of 10.0 mL. […] The consumed solvents and their volumes were recorded for each reference compound.
Reported values of solubility for individual entries

C=C1CC[C@H](O)C/C1=C/C=C1\CCC[C@]2(C)[C@@H]([C@H](C)CCCC(C)C)CC[C@@H]12	104000 µg/mL
C/C(=C\CNc1ncnc2[nH]cnc12)CO	< 190 µg/mL
CN1C(=O)CC[C@H]1c1cccnc1	< 190 µg/mL

Request: What does the data say about its solubility? Entry: c1cncc([C@@H]2CCCCN2)c1
Result: < 190 µg/mL

---

- protocol: physchem
- conditionNotes: 22 °C, organic solvent or mixture, thermodynamic from solid, Solubility in CH2Cl2/MeOH (4:1)
propertyLabel: solubility (mg/mL)
Report the figure in mg/mL without appending any unit label.

Request: GET /values?readout=solubility&item= C=C1CC[C@H](O)C/C1=C/C=C1\CCC[C@]2(C)[C@@H]([C@H](C)CCCC(C)C)CC[C@@H]12 [Vitamin D3]
Result: 212

---

- protocol: physchem
- conditionNotes: 22 °C, organic solvent or mixture, thermodynamic from solid, Solubility in CH2Cl2, solvent dichloromethane (CH2Cl2); room temperature (21–23 °C)
propertyLabel: solubility (µg/mL)
Just the number in µg/mL, nothing appended.

CC(C)=CCC/C(C)=C/CC/C(C)=C/CC/C=C(\C)CC/C=C(\C)CCC=C(C)C	474000

We next turn to a different compound, shown below.
Request: State the recorded solubility for this entry: CC1=C(/C=C/C(C)=C/C=C/C(C)=C/C=C/C=C(C)/C=C/C=C(C)/C=C/C2=C(C)C[C@@H](O)CC2(C)C)C(C)(C)C[C@H](O)C1
Result: 290

---

- protocol: physchem
- conditionNotes: 22 °C, organic solvent or mixture, thermodynamic from solid, Solubility in CH2Cl2, solvent dichloromethane (CH2Cl2); room temperature (21–23 °C)
propertyLabel: solubility (mg/mL)
Field format: number, assumed mg/mL, no unit text.

// below: answered compounds
C1=CCC(c2cccnc2)NC1 (centres unmarked) [Anatabine]	442
CCCCC/C=C\C/C=C\CCCCCCCC(=O)O [Linoleic acid]	504
c1cncc([C@@H]2CCCN2)c1 [Nornicotine]	422

# ---- query compound ----
Request: Which solubility value is on record for c1cncc(C2=NCCC2)c1 [Myosmine] ?
Result: 194

---

- protocol: physchem
- conditionNotes: 22 °C, water, thermodynamic from solid, Solubility in H2O, solvent water; room temperature (21–23 °C)
propertyLabel: solubility (mg/mL)
Please reply with the bare figure in mg/mL and do not write the unit itself.

C1=CCC(c2cccnc2)NC1 (stereo not shown)	100

Request: Which measured solubility value corresponds to c1cncc(C2=NCCC2)c1 ?
Result: 180

Request: I have this molecule here, c1cncc([C@@H]2CCCN2)c1 , and I need its recorded solubility.
Result: 416

---

- protocol: physchem
- conditionNotes: 22 °C, organic solvent or mixture, thermodynamic from solid, Solubility in MeOH, solvent methanol; room temperature (21–23 °C)
Below, each entry is listed alongside its reported log10 of solubility.
Hey, these are logged values: log10 of solubility, mg/mL being the unit before logging.

Examples from the recorded data:
c1cncc([C@@H]2CCCN2)c1	2.63
CCCCC/C=C\C/C=C\CCCCCCCC(=O)O	2.72
CC(C)=CCC/C(C)=C/CC/C(C)=C/CC/C=C(\C)CC/C=C(\C)CCC=C(C)C	-0.66
C1=CCC(c2cccnc2)NC1 (stereo not shown)	2.65

# next molecule below
Request: // returns reported log10 of solubility for input c1cncc(C2=NCCC2)c1
Result: 2.55
